Data provenance is patent EP2119770B1.

subject-of-test: Gox2107 (Gluconobacter oxydans, UniProt Q5FP53)
test-name: Enzyme activity assay (rate of NAD(P)H decrease at 340 nm), Gox2107
Assay type: biochemical
assay-conditions: Tab. 7, Gox2107; cofactor NADPH; 10 mM substrate, pH 7.0, 30 °C
Strictly below 40 U/mg in Specific Activity: y. Otherwise: n.

1) CCCC(=O)C(C)=O	y
2) N#CC1=C(C#N)C(=O)C(Cl)=C(Cl)C1=O	y
3) O=CC(=O)c1ccccc1	y
4) O=C1C=C(O)C(=O)c2ccccc21 [2-hydroxy-1,4-naphthoquinone]	y
5) O=C1C=CC(=O)C=C1	n
6) CCC(=O)C(=O)CC	y
7) C=C(C)[C@H]1CC=C(C)C(=O)C1 [(+)-Carvone]	y
8) CC(=O)C=O	y
9) O=C1C=CC(=O)c2ccccc21	n
10) CC(=O)C(=O)c1ccccc1	y
11) CC=CC(C)=O	y
12) C=CC(C)=O	n
13) CC(=O)C(C)=O	y
14) C=CC(=O)CC	y
15) O=C1C=CCCC1	y
16) CC1=CC(=O)c2ccccc2C1=O	n

====

subject-of-test: Gox0313 (Gluconobacter oxydans)
Sequence (Q5FU50 1-343): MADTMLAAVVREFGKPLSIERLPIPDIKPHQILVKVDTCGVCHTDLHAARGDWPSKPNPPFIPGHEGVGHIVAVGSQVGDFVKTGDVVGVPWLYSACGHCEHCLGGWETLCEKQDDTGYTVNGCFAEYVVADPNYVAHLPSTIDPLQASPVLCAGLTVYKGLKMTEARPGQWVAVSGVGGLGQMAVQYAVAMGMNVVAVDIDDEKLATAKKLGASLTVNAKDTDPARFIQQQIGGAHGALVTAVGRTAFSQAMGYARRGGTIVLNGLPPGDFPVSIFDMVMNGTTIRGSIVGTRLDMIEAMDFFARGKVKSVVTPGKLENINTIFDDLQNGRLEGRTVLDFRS
test-name: Enzyme activity assay (rate of NAD(P)H decrease at 340 nm), Gox0313
Type: biochemical
assay-conditions: Tab. 6, Gox0313; substrate reduction, cofactor NADH; 10 mM substrate, pH 7.0, 30 °C
experimental-endpoint: Specific Activity (U/mg)

1) CC(=O)C=O [methylglyoxal]	10.6
2) CC=O [acetaldehyde]	61.0
3) CCCC(=O)C(C)=O [2,3-hexanedione]	19.6
4) CC(=O)C(C)=O [2,3-butanedione]	28.5
5) CCCCCCC=O [heptanal]	8.6
6) CCC=O [propionaldehyde]	15.0
7) CCCCCCCCCCC=O [undecylaldehyde]	8.5
8) CCCC=O [butyraldehyde]	8.5
9) Cc1ccc(C=O)cc1 [p-toluylaldehyde]	3.3
10) O=C(C(=O)c1ccccc1)c1ccccc1 [benzil]	0.1
11) O=CC=Cc1ccccc1 [cinnamaldehyde]	7.0
12) CCCCCCCCCC=O [decanal]	18.8
13) CCCCCCCCC=O [Nonal]	4.4
14) CC=CC(C)=O [3-penten-2-one]	1.5

====

subject-of-test: UniProt:Q5FT75
test-name: Enzyme activity assay (rate of NAD(P)H decrease at 340 nm), Gox0644
Assay type: biochemical
assay-conditions: Table 3, Gox0644; 10 mM substrate, K-phosphate buffer pH 7.0, 0.05 mM NAD(P)H, 30 °C
Readings of log10(Activity) for the listed molecules
experimental-endpoint: log10(Activity) (log10 of the value in U/mg)

1) CC(=O)C=O [methylglyoxal]	0.53
2) CCCC(=O)C(C)=O [2,3-hexanedione]	1.70
3) CC(=O)C(=O)c1ccccc1 [1-phenyl-1,2-propanedione]	1.88
4) CCC(=O)C(=O)CC [3,4-hexanedione]	0.86
5) O=CC(=O)c1ccccc1 [phenylglyoxal]	1.82
6) CCC(=O)C(C)=O [2,3-pentanedione]	1.95

====

Readings of Activity for the listed compounds
subject-of-test: Gox0646 (Gluconobacter oxydans, UniProt Q5FT73)
Sequence (Q5FT73 1-264): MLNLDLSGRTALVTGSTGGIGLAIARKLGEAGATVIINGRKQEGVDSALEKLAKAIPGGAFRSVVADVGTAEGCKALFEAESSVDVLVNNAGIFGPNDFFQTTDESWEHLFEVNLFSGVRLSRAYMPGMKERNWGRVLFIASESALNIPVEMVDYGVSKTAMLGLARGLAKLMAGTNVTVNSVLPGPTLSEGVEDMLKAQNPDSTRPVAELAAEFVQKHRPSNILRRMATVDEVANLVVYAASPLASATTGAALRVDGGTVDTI
test-name: Enzyme activity assay (rate of NAD(P)H decrease at 340 nm), Gox0646
Type: biochemical
assay-conditions: Table 3, Gox0646; 10 mM substrate, K-phosphate buffer pH 7.0, 0.05 mM NAD(P)H, 30 °C
Method: Measurment of enzyme activity: NADPH-dependent alpha-ketocarbonyl reductases were assayed by a routine method used for NAD(P)-linked enzymes by recording the rate of decrease of NADPH at 340 nm (ε = 6.22 mM^-1 x cm^-1)) with substrates at 30 °C. The reaction mixture (1 ml) for reduction of alpha-ketocarbonyl substrates contained 10 mM substrate, 40 mM potassium phosphate buffer pH 7.0, 0.025 mM NAD(P)H , and the enzyme. Reactions were induced by addition of enzyme or substrate. […]
experimental-endpoint: Activity (U/mg)

1. CCCC(=O)C(C)=O	8.0
2. CC(=O)C=O	0.2
3. CCC(=O)C(C)=O	8.0
4. CC(=O)C(=O)c1ccccc1	6.0
5. CCC(=O)C(=O)CC	2.0

====

subject-of-test: Gox1615 (Gluconobacter oxydans)
test-name: Enzyme activity assay (rate of NAD(P)H decrease at 340 nm), Gox1615
Format: biochemical
assay-conditions: Table 3, Gox1615; 10 mM substrate, K-phosphate buffer pH 7.0, 0.05 mM NAD(P)H, 30 °C
experimental-endpoint: Activity (U/mg)

1) CC(=O)C=O	19.3
2) CCC(=O)C(C)=O	6.2
3) O=CC(=O)c1ccccc1	19.1
4) CCC(=O)C(=O)CC	2.0
5) CCCC(=O)C(C)=O	6.5
6) CC(=O)C(=O)c1ccccc1	5.4

====

Readings of Specific Activity for the listed compounds
subject-of-test: Gox0644 (Gluconobacter oxydans)
test-name: Enzyme activity assay (rate of NAD(P)H decrease at 340 nm), Gox0644
Assay type: biochemical
assay-conditions: Tab. 4, Gox0644; cofactor NADPH; 10 mM substrate, pH 7.0, 30 °C
experimental-endpoint: Specific Activity (U/mg)

1) CCCC(=O)C(C)=O [2,3-hexanedione]	50.1
2) O=C1Nc2ccccc2C1=O [Isatin]	16.1
3) O=CC(=O)O [glyoxalate]	1.2
4) CCC(=O)C(=O)CC [3,4-hexanedione]	7.3
5) CC(=O)C=O [methylglyoxal]	3.4
6) O=C(C(=O)c1ccccc1)c1ccccc1 [benzil]	14.0
7) O=CC(=O)c1ccccc1 [phenylglyoxal]	66.0

====

subject-of-test: Gox1615 (Gluconobacter oxydans, UniProt Q5FQJ0)
Sequence (Q5FQJ0 1-332): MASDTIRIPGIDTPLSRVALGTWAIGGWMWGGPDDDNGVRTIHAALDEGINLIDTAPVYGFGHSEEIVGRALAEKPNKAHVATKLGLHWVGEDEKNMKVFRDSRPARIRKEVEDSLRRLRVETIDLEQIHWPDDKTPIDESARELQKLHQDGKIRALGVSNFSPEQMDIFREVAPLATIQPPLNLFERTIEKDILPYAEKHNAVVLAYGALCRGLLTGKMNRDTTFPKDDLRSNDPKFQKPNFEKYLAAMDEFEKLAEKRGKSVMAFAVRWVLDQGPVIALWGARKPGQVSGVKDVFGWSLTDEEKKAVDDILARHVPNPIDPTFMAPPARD
test-name: Enzyme activity assay (rate of NAD(P)H decrease at 340 nm), Gox1615
Assay type: biochemical
assay-conditions: Tab. 5, Gox1615; cofactor NADPH; 10 mM substrate, pH 7.0, 30 °C
Strictly below 4 U/mg in Specific Activity: YES. Otherwise: NO.

1. C=CC(C)=O [3-buten-2-one]	YES
2. CCC(=O)C(C)=O [2,3-pentanedione]	NO
3. CCCCCC=O [hexanal]	NO
4. CC(=O)C=CC(C)C [5-methyl-3-hexen-2-one]	YES
5. CCCC=O [butyraldehyde]	NO
6. CCC=O [propionaldehyde]	NO
